Test system: dengue virus type 3
Experiment: Activity of dengue virus 3 recombinant NS3 protease expressed in Escherichia coli C41(DE3) by fluorogenic assay
Non-standard residues stand in square brackets, D forms with d. Residues, ends and D or L forms follow the SMILES beside them. Tyr(3-NO2) = N[C@@H](Cc1ccc(O)c([N+](=O)[O-])c1)C(=O)O; 2Abz = Nc1ccccc1C(=O)O
property: Km (µM)
Give your result in µM as a bare value.

Consider the reported Km for these molecules:
molecule | unit_spec | Km
C[C@H](NC(=O)CNC(=O)c1ccccc1N)C(=O)N[C@H](C(=O)N[C@@H](Cc1cnc[nH]1)C(=O)N[C@@H](Cc1ccc(O)c([N+](=O)[O-])c1)C(N)=O)[C@@H](C)O (H-[2Abz]GATH[Tyr(3-NO2)]-NH2) | µM | 18.9
CC(C)C[C@H](NC(=O)[C@@H]1CCCN1C(=O)[C@H](Cc1c[nH]c2ccccc12)NC(=O)[C@H](CO)NC(=O)c1ccccc1N)C(=O)N[C@@H](Cc1ccc(O)c([N+](=O)[O-])c1)C(N)=O (H-[2Abz]SWPL[Tyr(3-NO2)]-NH2) | µM | 12

Task item: Consider the molecule shown here: C[C@H](NC(=O)c1ccccc1N)C(=O)N1CCC[C@H]1C(=O)N[C@@H](CS)C(=O)N[C@@H](CC(N)=O)C(=O)N[C@@H](Cc1ccc(O)c([N+](=O)[O-])c1)C(N)=O (H-[2Abz]APCN[Tyr(3-NO2)]-NH2) What is its recorded Km?
Reply: 3.87

Task item: Endpoint output: Km of C[C@@H](O)[C@H](NC(=O)CNC(=O)CNC(=O)c1ccccc1N)C(=O)N[C@@H](CC(=O)O)C(=O)N[C@@H](Cc1ccc(O)c([N+](=O)[O-])c1)C(N)=O (H-[2Abz]GGTD[Tyr(3-NO2)]-NH2) . Value?
Reply: 18.6

Every entry's value here was drawn from ChEMBL document CHEMBL1152244.
